Target: Solute carrier organic anion transporter family member 1B1 (Homo sapiens)
Sequence (Q9Y6L6 whole entry): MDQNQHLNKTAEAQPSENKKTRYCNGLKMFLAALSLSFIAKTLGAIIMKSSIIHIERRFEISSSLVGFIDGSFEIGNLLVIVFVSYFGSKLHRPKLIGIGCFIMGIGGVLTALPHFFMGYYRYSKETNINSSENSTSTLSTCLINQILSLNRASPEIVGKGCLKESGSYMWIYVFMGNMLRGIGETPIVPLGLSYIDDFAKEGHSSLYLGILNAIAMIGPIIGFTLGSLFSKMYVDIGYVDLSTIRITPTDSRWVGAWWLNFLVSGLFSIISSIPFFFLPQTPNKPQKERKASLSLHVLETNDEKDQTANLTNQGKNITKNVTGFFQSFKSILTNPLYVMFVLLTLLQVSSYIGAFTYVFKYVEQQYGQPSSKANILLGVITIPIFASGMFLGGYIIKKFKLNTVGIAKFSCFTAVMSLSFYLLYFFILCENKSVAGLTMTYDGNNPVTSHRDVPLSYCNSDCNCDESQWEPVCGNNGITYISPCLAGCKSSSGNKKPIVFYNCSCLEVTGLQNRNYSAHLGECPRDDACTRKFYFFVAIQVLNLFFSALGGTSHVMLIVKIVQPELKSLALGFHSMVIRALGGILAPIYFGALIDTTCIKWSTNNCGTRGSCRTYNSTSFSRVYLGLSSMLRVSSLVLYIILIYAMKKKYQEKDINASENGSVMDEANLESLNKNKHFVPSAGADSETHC
Conditions: chinese hamster, cho, 10 µM
Recorded residual activity by entry
Answer format: numeric, % implied, no suffix.

# count of solved cases: 10
| MOLECULE | TARGET | residual activity, % |
| --- | --- | --- |
| CC(=O)OC(C)(C)[C@@H]1Cc2cc3ccc(=O)oc3cc2O1 [MARMESIN ACETATE] | Solute carrier organic anion transporter family member 1B1 (Homo sapiens) | 70.52 |
| Cc1c(C)c2c(c(C)c1O)CCC(C)(CCCC(C)CCCC(C)CCCC(C)C)O2 (stereo not drawn) [alpha-TOCHOPHEROL] | Solute carrier organic anion transporter family member 1B1 (Homo sapiens) | 85.48 |
| Cc1ccc(C(=O)c2ccc(CC(=O)[O-])n2C)cc1.[Na+] [TOLMETIN SODIUM] | Solute carrier organic anion transporter family member 1B1 (Homo sapiens) | 127.1 |
| O=c1ccc2ccc(O)c(O)c2o1 [DAPHNETIN] | Solute carrier organic anion transporter family member 1B1 (Homo sapiens) | 66.34 |
| O=C(O)CCCCCCCC(=O)O [AZELAIC ACID] | Solute carrier organic anion transporter family member 1B1 (Homo sapiens) | 100.4 |
| CC(=O)O[C@H]1C[C@@H](OC(C)=O)C(C)(C)[C@@H]2CC(=O)[C@]3(C)[C@H](CC[C@@]4(C)[C@H](C(=O)O)OC(=O)[C@H]5O[C@]543)[C@@]12C | Solute carrier organic anion transporter family member 1B1 (Homo sapiens) | 72.69 |
| CC1=CC(=O)C2=C(C)CC[C@@H]3[C@H](OC(=O)[C@H]3C)[C@@H]12 [DESACETOXYMATRICARIN] | Solute carrier organic anion transporter family member 1B1 (Homo sapiens) | 129 |
| Cc1cc(O)cc(O)c1C(=O)O [ORSELLINIC ACID] | Solute carrier organic anion transporter family member 1B1 (Homo sapiens) | 66.07 |
| O=C(O)CCCC[C@@H]1SC[C@@H]2NC(=O)N[C@@H]21 [BIOTIN] | Solute carrier organic anion transporter family member 1B1 (Homo sapiens) | 93.06 |
| CC1(C)C(=O)C=C[C@]2(C)[C@H]3CC[C@@]4(C)[C@H](c5ccoc5)OC(=O)[C@H]5O[C@]54[C@]3(C)C(=O)C[C@@H]12 [DEACETOXY-7-OXOGEDUNIN] | Solute carrier organic anion transporter family member 1B1 (Homo sapiens) | 40.28 |

Please supply the value of reported residual activity for the item NC(=O)c1ncn([C@@H]2O[C@H](CO)[C@@H](O)[C@H]2O)c1O [MIZORIBINE]
113.4

Please supply the value of reported residual activity for the item NNCCc1ccccc1.O=S(=O)(O)O [PHENELZINE SULFATE]
91.37

Please supply the value of reported residual activity for the item COP(N)(=O)SC (stereo not drawn) [METHAMIDOPHOS]
96.41

Please supply the value of reported residual activity for the item O=C1O[C@H](CO)[C@@H](O)[C@H](O)[C@H]1O [GLUCONOLACTONE]
81.83

Please supply the value of reported residual activity for the item COc1c2c(cc3c1OCO3)CCN(C)C2 [HYDROCOTARNINE]
77.76

Please supply the value of reported residual activity for the item COc1ccc2c(c1)CC[C@@H]1[C@@H]2CC[C@]2(C)[C@@H](O)CC[C@@H]12 [ESTRADIOL METHYL ETHER]
137.4

Please supply the value of reported residual activity for the item C[N+]1(C)C[C@@H](O)C[C@@H]1C(=O)[O-] [BETONICINE]
89.8

Please supply the value of reported residual activity for the item Cc1cccc(Nc2ccncc2S(=O)(=O)NC(=O)NC(C)C)c1 [TORSEMIDE]
73.9

====

Molecular target: Solute carrier organic anion transporter family member 1B3 (Homo sapiens, UniProt Q9NPD5)
Sequence (Q9NPD5 whole entry): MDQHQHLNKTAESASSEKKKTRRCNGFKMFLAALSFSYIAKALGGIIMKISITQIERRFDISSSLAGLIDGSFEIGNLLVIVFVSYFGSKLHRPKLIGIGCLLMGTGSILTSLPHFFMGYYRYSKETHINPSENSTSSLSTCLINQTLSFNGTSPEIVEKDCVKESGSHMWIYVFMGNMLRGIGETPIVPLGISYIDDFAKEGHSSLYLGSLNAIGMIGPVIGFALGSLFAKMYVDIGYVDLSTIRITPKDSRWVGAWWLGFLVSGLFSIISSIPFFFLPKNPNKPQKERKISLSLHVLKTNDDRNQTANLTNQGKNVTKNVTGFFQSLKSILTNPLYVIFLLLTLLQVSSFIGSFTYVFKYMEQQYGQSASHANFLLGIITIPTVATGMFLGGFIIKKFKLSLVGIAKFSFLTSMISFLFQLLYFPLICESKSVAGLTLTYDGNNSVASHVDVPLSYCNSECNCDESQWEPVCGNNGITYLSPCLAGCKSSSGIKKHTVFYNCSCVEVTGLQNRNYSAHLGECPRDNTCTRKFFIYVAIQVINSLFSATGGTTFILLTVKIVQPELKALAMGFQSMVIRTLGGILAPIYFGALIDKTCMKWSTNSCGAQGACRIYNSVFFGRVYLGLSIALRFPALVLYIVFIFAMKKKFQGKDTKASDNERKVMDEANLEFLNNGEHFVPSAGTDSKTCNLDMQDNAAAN
Conditions: chinese hamster, cho, 10 µM
Recorded residual activity by entry
// return the numeric value with its unit appended

# count of solved cases: 9
| MOLECULE | EXPERIMENTAL VALUE |
| --- | --- |
| O=C(O)c1nn(Cc2ccc(Cl)cc2Cl)c2ccccc12 | 108% |
| O=C1C(O)=C([C@H]2CC[C@H](c3ccc(Cl)cc3)CC2)C(=O)c2ccccc21 | 81.94% |
| O=C(O)c1cccc(O)c1O [2,3-DIHYDROXYBENZOIC ACID] | 84.74% |
| N=C(N)c1ccc(OCCCCCOc2ccc(C(=N)N)cc2)cc1.O=S(=O)(O)CCO | 156% |
| O=C([O-])c1cc2cc(Cc3cccnc3)ccc2o1.[Na+] | 108.4% |
| CC(C)CCC[C@@H](C)[C@H]1CC[C@H]2C3=CC[C@H]4C[C@@H](O)CC[C@]4(C)[C@H]3CC[C@]12C | 99.24% |
| COc1ccc2oc(-c3ccccc3)c(OC)c(=O)c2c1 | 76.93% |
| Cn1c(=O)c2c(ncn2C)n(C)c1=O | 90.35% |
| O=c1cc(-c2ccc(O)cc2)oc2cc(O)cc(O)c12 | 134.2% |

Below: the item to evaluate.
Please supply the value of reported residual activity for the item COc1cc(C)c(C(=O)O)c(O)c1
90.88%

====

Recorded residual activity by entry
Molecular target: Solute carrier organic anion transporter family member 1B3 (Homo sapiens, UniProt Q9NPD5)
Sequence (Q9NPD5 whole entry): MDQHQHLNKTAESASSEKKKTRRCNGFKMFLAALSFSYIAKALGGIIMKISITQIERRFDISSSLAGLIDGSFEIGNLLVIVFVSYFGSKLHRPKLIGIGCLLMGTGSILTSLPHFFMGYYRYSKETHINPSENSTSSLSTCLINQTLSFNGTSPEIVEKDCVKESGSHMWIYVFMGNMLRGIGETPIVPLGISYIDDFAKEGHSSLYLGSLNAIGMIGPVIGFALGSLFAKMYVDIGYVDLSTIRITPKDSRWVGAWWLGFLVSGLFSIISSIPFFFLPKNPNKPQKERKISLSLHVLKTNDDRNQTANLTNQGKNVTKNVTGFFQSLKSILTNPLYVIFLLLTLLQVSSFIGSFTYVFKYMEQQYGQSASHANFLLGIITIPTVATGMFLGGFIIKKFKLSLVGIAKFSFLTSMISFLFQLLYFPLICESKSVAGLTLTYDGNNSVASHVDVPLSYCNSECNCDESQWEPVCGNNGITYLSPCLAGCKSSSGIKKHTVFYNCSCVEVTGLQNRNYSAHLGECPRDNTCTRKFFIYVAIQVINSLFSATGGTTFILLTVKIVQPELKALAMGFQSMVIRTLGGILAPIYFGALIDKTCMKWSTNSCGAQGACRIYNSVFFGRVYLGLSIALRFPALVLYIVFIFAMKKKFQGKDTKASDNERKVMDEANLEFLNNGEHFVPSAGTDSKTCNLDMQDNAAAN
Details: chinese hamster, cho, 10 µM
Answer format: numeric, % implied, no suffix.

# count of solved cases: 4
| COMPOUND | TARGET | residual activity / % |
| --- | --- | --- |
| CCCCCCCCCCC[C@@H](C[C@@H]1OC(=O)[C@H]1CCCCCC)OC(=O)[C@H](CC(C)C)NC=O | Solute carrier organic anion transporter family member 1B3 (Homo sapiens, UniProt Q9NPD5) | 84.62 |
| C[n+]1cccc(C(=O)[O-])c1 | Solute carrier organic anion transporter family member 1B3 (Homo sapiens, UniProt Q9NPD5) | 98.34 |
| COP(N)(=O)SC (stereo not given) | Solute carrier organic anion transporter family member 1B3 (Homo sapiens, UniProt Q9NPD5) | 106 |
| COC(=O)CC1C(C)(C)C(OC(C)=O)[C@@H]2[C@@H](OC(C)=O)[C@]34O[C@@]2(O)[C@]1(C)C3CC[C@]1(C)C4=CC(=O)O[C@H]1c1ccoc1 (stereo not given in full) | Solute carrier organic anion transporter family member 1B3 (Homo sapiens, UniProt Q9NPD5) | 9.764 |

Enter recorded residual activity with Solute carrier organic anion transporter family member 1B3 (Homo sapiens, UniProt Q9NPD5) for C[C@@H]1CC[C@@]2(OC1)O[C@H]1[C@@H](O)[C@H]3[C@@H]4CC[C@H]5C[C@@H](O[C@@H]6O[C@H](CO)[C@H](O[C@@H]7O[C@H](CO)C(O)[C@H](O[C@@H]8OC[C@@H](O)[C@H](O)[C@H]8O)[C@H]7O[C@@H]7O[C@H](CO)[C@H](O)[C@H](O[C@@H]8O[C@H](CO)[C@@H](O)[C@H](O)[C@H]8O)[C@H]7O)[C@H](O)[C@H]6O)[C@H](O)C[C@]5(C)[C@H]4CC[C@]3(C)[C@H]1[C@@H]2C (stereo not given in full) here.
98.34
